# Tested on: tet-on competent MLL/AF9+Nras AML
# PROTOCOL_DESCRIPTION: Pooled negative selection RNAi screening (deep sequencing)
# Type: cell-based, mouse
# CONDITION_LABEL: deep sequencing reads, On Dox compared to T0
Mark MET only when Fold depletion in AML stays strictly below 10 Fold. Values equal to the cut-off are NOT MET.

# MOLECULE, LABEL_VALUE
data = [
    ("Gdi1.1120: shRNA, SEQ ID NO: 129 (nucleic acid) TGCTGTTGACAGTGAGCGCCAACAGGAAGTCAGACATCTATAGTGAAGCCACAGATGTATAGATGTCTGACTTCCTGTTGATGCCTACTGCCTCGGA", "NOT MET"),
    ("Cerk.4466: shRNA, SEQ ID NO: 108 (nucleic acid) TGCTGTTGACAGTGAGCGCCTGGTATATTTGAGAAGACAATAGTGAAGCCACAGATGTATTGTCTTCTCAAATATACCAGATGCCTACTGCCTCGGA", "NOT MET"),
    ("Ptgs2.284: neutral control shRNA, SEQ ID NO: 211 (nucleic acid) TGCTGTTGACAGTGAGCGAAAGAATCAAATTACTGCTGAATAGTGAAGCCACAGATGTATTCAGCAGTAATTTGATTCTTGTGCCTACTGCCTCGGA", "MET"),
    ("Lin28.2180: neutral control shRNA, SEQ ID NO: 198 (nucleic acid) TGCTGTTGACAGTGAGCGCAGCGTGATGGTTGATAGCTAATAGTGAAGCCACAGATGTATTAGCTATCAACCATCACGCTATGCCTACTGCCTCGGA", "MET"),
    ("Kit.2021: neutral control shRNA, SEQ ID NO: 195 (nucleic acid) TGCTGTTGACAGTGAGCGACACCCTGGTCATTACAGAATATAGTGAAGCCACAGATGTATATTCTGTAATGACCAGGGTGGTGCCTACTGCCTCGGA", "MET"),
    ("Centd3.3993: shRNA, SEQ ID NO: 107 (nucleic acid) TGCTGTTGACAGTGAGCGCCTGGACCACAAGCATCCTTAATAGTGAAGCCACAGATGTATTAAGGATGCTTGTGGTCCAGTTGCCTACTGCCTCGGA", "NOT MET"),
    ("Cd6.520: shRNA, SEQ ID NO: 102 (nucleic acid) TGCTGTTGACAGTGAGCGAGAGCCACTTCTGGGAACACAATAGTGAAGCCACAGATGTATTGTGTTCCCAGAAGTGGCTCCTGCCTACTGCCTCGGA", "NOT MET"),
    ("Lin28.2430: neutral control shRNA, SEQ ID NO: 201 (nucleic acid) TGCTGTTGACAGTGAGCGATGGCCTAGTTGTGTAAATATATAGTGAAGCCACAGATGTATATATTTACACAACTAGGCCACTGCCTACTGCCTCGGA", "MET"),
    ("Pygl.1463: shRNA, SEQ ID NO: 171 (nucleic acid) TGCTGTTGACAGTGAGCGCACCAGACAAGTTCCAGAATAATAGTGAAGCCACAGATGTATTATTCTGGAACTTGTCTGGTTTGCCTACTGCCTCGGA", "NOT MET"),
]
